Consider the following molecules and their measured growth readings.
- Test system: OVCAR-8 ovarian
- TEST METHOD NOTES: NCI-60 one-dose screen, 48 h (100 = growth as untreated, 0 = no growth, -100 = all killed)
- RECORDED CONDITIONS: 10 µM unless noted
- Procedure: Growth inhibition of the OVCAR-8 human tumor cell line is measured as a screen for anti-cancer activity. Cells are grown in 96 well plates and exposed to the test compound for 48 hours. Compounds are tested at a single concentration, which is 10^-5 M for most compounds. The reported endpoint is percent growth (GI% or GIPRCNT), where numbers from 0 - 100% represent growth inhibition, and numbers from -100% - 0 represent cell death. For example, a value of 40 represents 60% growth inhibition. […]
This is part of a sample that, as a whole, favours compounds with a hit. Of some 83,000 tested, about 20% had one in any assay. The source made the active and inactive calls. The calls were made as follows: active = growth percent below 10; inactive = the rest.

Illustrative cases are given below, each with its answer.
Cc1ccc2nc(NC(=O)Nc3cccc(Cl)c3)sc2c1 :: 107% (inactive)
Cn1cc(-c2cc(N)n3nc(-c4c[nH]c5ccccc45)cc3n2)c2cc(Cl)ccc21 :: -63.7% (active)
COc1cncc(-c2ccc3ncnc(N4CCc5ccc(Cl)cc54)c3c2)c1 :: 39.4% (inactive)

Inquiry: Query: growth; subject: Fc1ccccc1CNc1nc(SCCN2CCOCC2)nc2c1cnn2CC(Cl)c1ccc(Br)cc1 (stereo not given)
Reply text: 43.8% (inactive)

Inquiry: Request: COc1ccc(-c2cc(C(=O)N=Nc3c(O)[nH]c4ccc(Cl)cc34)c3ccccc3n2)cc1OC
Reply text: 110% (inactive)

---

- System: SN12C renal
- TEST METHOD NOTES: NCI-60 one-dose screen, 48 h
- RECORDED CONDITIONS: 10 µM unless noted
Compounds without any hit were thinned out: in the full panel of roughly 83,000, 20% have a hit. Active and inactive are the calls of the source. How the source made its calls: active means growth percent below 10; inactive means the rest.
Bench note: report the call from Y = active, N = inactive

Solved entries:
O=C(N/N=C/c1ccc(B(O)O)s1)c1[nH]c2ccc(Br)cc2c1-c1ccccc1 :: Y
CCOc1ccccc1[C@H]1C(C(=O)c2ccc(Cl)cc2)C2(N[C@@H]1c1ccccc1)C(=O)Nc1ccc(Cl)cc12 (stereo partly drawn) :: Y

Inquiry: Hi team, can someone confirm the assay call for COC(=O)c1c(C(=O)OC)c2ccc3c4ccccc4ccc3n2c1C(=O)C(C)Br (stereo not drawn) ?
Reply text: N

Inquiry: Request: c1n[nH]cc1-c1nc2ccc3[nH]ncc3c2c2c1CC1(CC2)COC1
Reply text: N

Inquiry: Request: NC(=O)c1ccc(-c2ccc3ncnc(N4CCc5cc(F)c(Cl)cc54)c3c2)cn1
Reply text: N

Inquiry: Request: COc1ccc(N=Nc2c(N)nn3c(-c4cc5cc(Br)ccc5oc4=O)ccnc23)cc1
Reply text: N

Inquiry: Request: COc1cccc(C(N)=Nc2ccc(OCCCCCCCCn3cncn3)cc2)c1
Reply text: N

Inquiry: Request: CC1=C(C)C(=O)C(NCCN2CCOCC2)=C(Br)C1=O
Reply text: N

Inquiry: Request: Cc1ccc2nc(SCc3ccccc3F)n(-c3ccccc3)c(=O)c2c1
Reply text: N

Inquiry: Request: CCCCCCCCCCCCCCCCCC(=O)Nc1ccc(OC)cc1
Reply text: N

Inquiry: Request: CC1=C(C(=O)OCc2ccccc2)C(c2cccc3ccccc23)n2c(nc3ccccc32)N1 (stereo not drawn)
Reply text: N

Inquiry: Request: COc1cc(C2CC(c3ccc(S(=O)(=O)NCCNc4nc(N(C)C)nc(N5CCOCC5)n4)cc3)=Nc3c(N)nc(N)nc3N2)cc(OC)c1OC (stereo not drawn)
Reply text: N

Inquiry: Request: COc1cc(CNC(=O)C[C@H](C)CCC=C(C)C)ccc1OCc1cn(-c2ccccc2F)nn1
Reply text: N

Inquiry: Request: CC1=C(C(=O)OC(C)C)C(c2ccc(O)cc2)NC(=O)N1 (stereo not drawn)
Reply text: N

Inquiry: Request: CCN1CCN(Cc2ccc(C(=O)Nc3cccc(Nc4ccc5c(OC)cccc5n4)c3)cc2C(F)(F)F)CC1
Reply text: Y

Inquiry: Request: Clc1ccccc1Nc1nnc(-c2c[nH]c3ccccc23)o1
Reply text: N

Inquiry: Request: COc1cncc(-c2ccc3ncnc(N4CCc5ccc(Cl)cc54)c3c2)c1
Reply text: N

Inquiry: Request: COc1ccc2c(c1)C(Sc1ccc(Br)cc1)c1c(nc(N)c(C#N)c1N)O2 (stereo not drawn)
Reply text: N

Inquiry: Request: Nc1cc(-c2c[nH]c3ccc(F)cc23)nc2cc(-c3c[nH]c4ccccc34)nn12
Reply text: N

Inquiry: Request: COc1ccc(NC(=O)CSc2nnc(-c3ccc(-c4nc5ccc(Cl)cc5[nH]4)cc3)o2)cc1
Reply text: Y

Inquiry: Request: N#C/C(=C1/C(=O)Nc2ccccc21)c1nnc(NC(=O)c2ccc(-n3c(=O)[nH]c4ccccc4c3=O)cc2)s1
Reply text: N

---

- Test system: IGROV1 ovarian
- TEST METHOD NOTES: NCI-60 one-dose screen, 48 h (100 = growth as untreated, 0 = no growth, -100 = all killed)
- RECORDED CONDITIONS: 10 µM unless noted
The panel holds about 83,000 compounds, 20% with a hit somewhere; the sample as a whole holds those more often.
Consider the following molecules and their measured growth readings.
Just the number in %, nothing appended.

Illustrative cases are given below, each with its answer.
Nc1nn2c(-c3cc4ccccc4oc3=O)ccnc2c1N=Nc1ccccc1 :: 47.5
COc1ccc(-c2cc(-c3cc(C(C)C)c(O)cc3C)nn2-c2ccc(S(N)(=O)=O)cc2)cc1 :: 85.8
S=C(NCCc1ccccc1)Nc1ccc(OCc2nc3ccc(Cl)cc3[nH]2)cc1 :: 31.4
O=C(NC(=S)N1CCN(c2ncnc3c2cnn3-c2ccccc2)CC1)c1ccc(F)cc1 :: 79.4

Proceed to the following item.
Inquiry: Lookup: growth / IGROV1 ovarian / Cc1cn(-c2cc(NC(=O)c3ccc(C)c(-n4cc(-c5cnc6cccnn56)nn4)c3)cc(C(F)(F)F)c2)cn1
Reply text: 88.7

---

- Test system: HCT-116 colon
- TEST METHOD NOTES: NCI-60 one-dose screen, 48 h (100 = growth as untreated, 0 = no growth, -100 = all killed)
- RECORDED CONDITIONS: 10 µM
About 83,000 compounds went through this panel and 20% of them were active in at least one assay; those are over-represented in the sample as a whole.
Consider the following molecules and their measured growth readings.
Just the number in %, nothing appended.

Illustrative cases are given below, each with its answer.
CC/C(=C(\c1ccc(O)cc1)c1ccc(OCCN(C)C(=O)COCCNC(=O)Cc2ccc3c(c2)CN([C@@H]2CCC(=O)NC2=O)C3=O)cc1)c1ccccc1 :: 99.6
CC/C(=C(/c1ccc(O)cc1)c1ccc(OCCN(C)C(=O)CCOCCNC(=O)Cc2ccc3c(c2)CN([C@@H]2CCC(=O)NC2=O)C3=O)cc1)c1ccccc1 :: 92.4
CC/C(=C(/c1ccc(O)cc1)c1ccc(OCCN(C)C(=O)COCCOCCNC(=O)c2ccc3c(c2)CN([C@@H]2CCC(=O)NC2=O)C3=O)cc1)c1ccccc1 :: 102

Proceed to the following item.
Inquiry: Query: growth; subject: CC/C(=C(\c1ccc(O)cc1)c1ccc(OCCN(C)C(=O)CCOCCNC(=O)c2ccc3c(c2)CN([C@@H]2CCC(=O)NC2=O)C3=O)cc1)c1ccccc1
Reply text: 94.8

---

Consider the following compounds and their measured growth readings.
- System: BT-549 breast
- TEST METHOD NOTES: NCI-60 one-dose screen, 48 h (100 = growth as untreated, 0 = no growth, -100 = all killed)
- RECORDED CONDITIONS: 10 µM unless noted
This is part of a sample that, as a whole, favours compounds with a hit. Of some 83,000 tested, about 20% had one in any assay.
Just the number in %, nothing appended.

Illustrative cases are given below, each with its answer.
O=c1[nH]c2ccccc2cc1CSc1ccccc1Nc1nccc(-c2ccc3c(c2)OCO3)n1 :: 67.6
O=C(N/N=C/c1c[nH]c2ccccc12)Nc1ccc(F)c(Cl)c1 :: 18.5
CC1=C(C)C(=O)C(NCCN2CCOCC2)=C(Br)C1=O :: 87.4
N#Cc1cc(-c2ccc3ncnc(N4CCc5cc(F)c(Cl)cc54)c3c2)cnc1N :: 9.67
O=C(COc1ccc(/C=C2/C(=O)Nc3ccc(Cl)cc32)cc1)Nc1ccc(Br)cc1 :: -34.2
Cn1cc(-c2cc(N)n3nc(-c4c[nH]c5ccc(Cl)cc45)cc3n2)c2cccnc21 :: -77.1
N/C(=N\c1nc2ccccc2s1)NC(=O)Nc1ccccc1F :: 30.2
Cc1ccccc1Nc1nnc(-c2c[nH]c3ccccc23)o1 :: 17.7

Inquiry: Query: growth; subject: CC(=O)c1ccc2c(N)c(C(=O)Nc3ccc(C(F)(F)F)cc3)sc2n1
Reply text: 43.4

Inquiry: Request: Cc1ccc(C(=O)Nc2cccc(C(=O)NC(=S)Nc3ccc(S(N)(=O)=O)cc3)c2)cc1
Reply text: 51.4

Data provenance is PubChem BioAssay (NCI).
